Parameter: GI50. Scope: all listed entries.
Test system: ACHN
Test: NCI tumour cell line growth inhibition, 48 h
Calls of active or inactive are those of the source. Rule as the data show it: active = GI50 up to about 1.1 µM and inactive = higher.

Previously resolved entries follow.
- molecule: "Cc1cc(C)c2c(c1)C1=NCCN1C2(O)c1ccc(Cl)cc1 (stereo not given)"
  GI50: "16.1 µM (inactive)"
- molecule: "CCN(CC)c1ccc2cc(C(N)=O)/c(=N/c3ccc(F)cc3)oc2c1"
  GI50: "40.8 µM (inactive)"
- molecule: "CCN(CC)CC1CN=C(N)O1 (stereo not given)"
  GI50: "> 100 µM (inactive)"
- molecule: "CC(=O)Nc1ccc(C(O)/C(=N/N)c2nc3ccc(Cl)cc3nc2O)cc1 (stereo not given)"
  GI50: "> 100 µM (inactive)"
- molecule: "CC1=C2[C@@H](c3ccccc3)C3C=CC2(C=C3C(F)(F)F)N(C(=O)NC2CCCCC2)C1=O (stereo not given in full)"
  GI50: "> 100 µM (inactive)"
- molecule: "COc1ccc2c(c1)CCC(CN1CCN(CCOC(c3ccccc3)c3ccccc3)CC1)C2O (stereo not given)"
  GI50: "12.6 µM (inactive)"
- molecule: "NNC(=S)N/N=C(/C(=O)Nc1cc(Cl)ccc1Cl)C1C(=O)Nc2ccccc2[S+]1[O-] (stereo not given)"
  GI50: "> 100 µM (inactive)"
- molecule: "O=C(Nc1cc(C(F)(F)F)ccc1Cl)C(=O)C(C(=O)c1ccc2ccccc2c1)C1OC(=O)c2ccccc21 (stereo not given)"
  GI50: "17 µM (inactive)"
- molecule: "CCc1ccc(/N=C\\c2cc(OC)c(OC)c(OC)c2)cc1"
  GI50: "> 100 µM (inactive)"

Using the record for "CC(C)(C)C#CI1OC(=O)c2ccccc21" , report its GI50. 2.9 µM (inactive)

----------
Tested on: KM12
Assay: NCI tumour cell line growth inhibition, 48 h
Activity calls are given as the source filed them. Cut-off read from the data, not from the text of the source: active = GI50 up to about 1.1 µM and inactive = higher.
Recorded GI50 by entry

- compound: "O=C(Nc1ccc(Cl)cc1C(=O)O)c1ccc([N+](=O)[O-])cc1"
  GI50: "18.4 µM (inactive)"
- compound: "COc1ccc2[nH]cc(C=C3C(=O)NC(=S)NC3=O)c2c1"
  GI50: "> 100 µM (inactive)"
- compound: "COC(=O)c1ccc(/C=C(\\c2ccc([N+](=O)[O-])o2)S(=O)(=O)c2ccc(NC(C)=O)cc2)o1"
  GI50: "13.4 µM (inactive)"
- compound: "CC(C)OP(=O)(OC(C)C)c1ccc2c(c1)OCCOCCOCCOCCO2"
  GI50: "> 100 µM (inactive)"

Now for a further compound.
Notebook: pull reported GI50 for KM12, entry O=C(O)CCC1CCc2cccc3occ1c23 (stereo not given) > 100 µM (inactive)

----------
Tested on: CAKI-1
Test: NCI tumour cell line growth inhibition, 48 h
Calls of active or inactive are those of the source. Rule as the data show it: active = GI50 up to about 1.1 µM and inactive = higher.
Result category, one only: active, inactive

Consider the worked cases shown below.
- compound: "CCOC(=N)CC(=O)Nc1ccc(Cl)cc1"
  measuredOn: "CAKI-1"
  category: "inactive"
- compound: "CN(C)c1ccc(C(=N/N=C2\\C(=O)Nc3ccccc32)c2ccc(N(C)C)cc2)cc1"
  measuredOn: "CAKI-1"
  category: "active"
- compound: "CCN(CC)CCc1c2c(nc3ccccc13)C(=O)c1cccnc1C2=O"
  measuredOn: "CAKI-1"
  category: "inactive"
- compound: "COc1ccc(C=O)cc1O[Si](C)(C)C(C)(C)C"
  measuredOn: "CAKI-1"
  category: "inactive"

Status in this test for O=C(Nc1cc(C(F)(F)F)ccc1Cl)C(=O)C(C(=O)c1ccc2ccccc2c1)C1OC(=O)c2ccccc21 (stereo unspecified) ? inactive

And the next one, "COc1cc(Nc2cnc3cc(F)c(F)cc3n2)cc(OC)c1" ? inactive

Sourced from ChEMBL document CHEMBL1201862
